Tested on: Lupinus albus
Test: Phytotoxicity against Lupinus albus assessed as area of lesions at 1 mg/ml at 20 degC for 4 days
Assay type: organism-based
Conditions: in vivo, 96 h
quantity measured: Activity

[Q] Which Activity value belongs to CCC[C@H]1OC(=O)[C@H](O)CC/C=C/[C@H](O)[C@@H]1O ?
[A] Non-toxic

[Q] Note, next up: C/C=C/C=C/C(=O)O[C@H]1CC/C=C/[C@H](O)[C@H](O)[C@@H](CCC)OC1=O
[A] 73.6 mm2

[Q] Note, next up: CCC[C@H]1OC(=O)[C@@H](O)CC/C=C/[C@H](O)[C@@H]1O
[A] Non-toxic

[Q] Note, next up: CCC[C@H]1OC(=O)[C@@H](O)CC/C=C/[C@@H](O)[C@@H]1O (relative stereo) [Pinolide]
[A] Non-toxic

* * *

Test system: Lens culinaris
Assay: Phytotoxicity against Lens culinaris assessed as area of lesions at 1 mg/ml at 20 degC for 4 days
Format: organism-based
Details: in vivo, 96 h
quantity measured: Activity

[Q] Lens culinaris / Activity / C/C=C/C=C/C(=O)O[C@H]1CC/C=C/[C@H](O)[C@H](O)[C@@H](CCC)OC1=O : value?
[A] 45.5 mm2

[Q] Note, next up: CCC[C@H]1OC(=O)[C@H](O)CC/C=C/[C@H](O)[C@@H]1O
[A] Non-toxic

[Q] Note, next up: CCC[C@H]1OC(=O)[C@@H](O)CC/C=C/[C@@H](O)[C@@H]1O (relative stereo) [Pinolide]
[A] Non-toxic

[Q] Note, next up: CCC[C@H]1OC(=O)[C@@H](O)CC/C=C/[C@H](O)[C@@H]1O
[A] Non-toxic

* * *

Tested on: Vicia faba
Assay: Phytotoxicity against Vicia faba assessed as area of lesions at 1 mg/ml at 20 degC for 4 days
Type: organism-based
Settings: in vivo, 96 h
quantity measured: Activity

[Q] Which Activity value belongs to CCC[C@H]1OC(=O)[C@H](O)CC/C=C/[C@H](O)[C@@H]1O [HERBARUMIN II] ?
[A] Non-toxic

[Q] Note, next up: C/C=C/C=C/C(=O)O[C@H]1CC/C=C/[C@H](O)[C@H](O)[C@@H](CCC)OC1=O [PINOLIDOXIN]
[A] 7.2 mm2

[Q] Note, next up: CCC[C@H]1OC(=O)[C@@H](O)CC/C=C/[C@H](O)[C@@H]1O
[A] Non-toxic

[Q] Note, next up: CCC[C@H]1OC(=O)[C@@H](O)CC/C=C/[C@@H](O)[C@@H]1O (relative stereo) [Pinolide]
[A] Non-toxic

* * *

Tested on: Lathyrus sativus
Test: Phytotoxicity against Lathyrus sativus assessed as area of lesions at 1 mg/ml at 20 degC for 4 days
Format: organism-based
Settings: in vivo, 96 h
quantity measured: Activity

[Q] Lathyrus sativus / Activity / CCC[C@H]1OC(=O)[C@@H](O)CC/C=C/[C@H](O)[C@@H]1O : value?
[A] Non-toxic

[Q] Note, next up: CCC[C@H]1OC(=O)[C@@H](O)CC/C=C/[C@@H](O)[C@@H]1O (relative stereo) [Pinolide]
[A] Non-toxic

[Q] Note, next up: C/C=C/C=C/C(=O)O[C@H]1CC/C=C/[C@H](O)[C@H](O)[C@@H](CCC)OC1=O
[A] 41.9 mm2

[Q] Note, next up: CCC[C@H]1OC(=O)[C@H](O)CC/C=C/[C@H](O)[C@@H]1O
[A] Non-toxic
